Please provide measured protein stability index for the entries that follow.
B1: KCNG1 (parent)
chain: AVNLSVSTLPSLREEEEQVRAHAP

variants of: B1; assay: protein stability index of a GFP-peptide fusion (GPS, HEK-293T) (PSI 1-6); higher = more stable; conditions: c terminus: a fixed tail appended;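 further: lentivirally expressed fusions sorted by FACS into six bins by GFP to DsRed ratio, PSI derived from sequencing read proportions per bin multiplied by bin number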

The examples below pair each entry with its known result.
# seq-text, protein stability index
data = [
    ("AVNLSVSTLPSLREEEEQVRAHAY [P24Y]", 4.41),
    ("AVNLSVSKLPSLREEEEQVRAHAP [T8K]", 4.61),
]

Required: protein stability index, one value per variant below.
1. AVNLSVSTLPSLREEEEIVRAHAP [Q18I]
2. AVNLSVSTLPSLREETEQVRAHAP [E16T]

Output line:
[4.82, 4.12]
